Items are presented alongside their recorded pEC50.
molecular target: UniProt P35372; assay: Hit Hunter cAMP signaling assay (adenylyl cyclase inhibition), PAM mode with EC20 endomorphin-1; type: cell-based
pEC50: −log10 of the molar value.

Consider the reported pEC50 for these compounds:
>  <Compound>
Fc1ccc(C2CCCCN2c2nc(Cl)ncc2F)cn1 (stereo not shown)

>  <Recorded Measurement>
< 5.68

$$$$
>  <Compound>
Fc1cnc(Cl)nc1N1CCCCC1c1cncc(Cl)c1 (stereo not shown)

>  <Recorded Measurement>
< 5.68

$$$$
>  <Compound>
Fc1cnc(Cl)nc1N1CCCCC1c1cccc(Cl)n1 (stereo not shown)

>  <Recorded Measurement>
5.68 to 6.15

$$$$

Given the compound Fc1ccc(C2C3CCC(C3)N2Cc2cc(Cl)ccc2F)cc1Cl (stereo not shown) and test system UniProt P35372, the measured pEC50 is < 5.68

====

biological target: mu opioid receptor (MOR) (Homo sapiens, UniProt P35372); assay: PathHunter β-arrestin recruitment assay, PAM mode with EC20 endomorphin-1; format: cell-based; conditions: β-arrestin recruitment, Table 3; read-out: β-arr. EC50
Sequence (P35372 whole entry): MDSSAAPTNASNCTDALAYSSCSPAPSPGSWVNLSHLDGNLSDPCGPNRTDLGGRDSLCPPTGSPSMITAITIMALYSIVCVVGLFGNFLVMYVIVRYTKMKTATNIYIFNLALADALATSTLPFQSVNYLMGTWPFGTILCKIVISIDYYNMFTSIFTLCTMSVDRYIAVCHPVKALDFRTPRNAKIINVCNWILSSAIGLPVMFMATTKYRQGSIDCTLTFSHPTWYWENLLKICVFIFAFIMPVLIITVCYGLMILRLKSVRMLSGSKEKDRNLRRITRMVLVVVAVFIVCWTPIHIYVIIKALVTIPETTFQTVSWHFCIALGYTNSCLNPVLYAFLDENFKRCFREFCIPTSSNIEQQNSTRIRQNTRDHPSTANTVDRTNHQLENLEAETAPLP
Observed Property: pEC50
Please note pEC50 is a logarithmic value: minus log10 of concentration in mol/L. Answer with that number alone.

Consider the reported pEC50 for these compounds:
>  <Compound>
CC1CCN(S(=O)(=O)c2ccc(Cl)cc2)C1c1ccc(F)c(C(F)(F)F)c1 (mixture of isomers)

>  <pEC50>
6.28

$$$$
>  <Compound>
O=S(=O)(c1ccc(Cl)cc1)N1CCCCC1c1ccc2c(c1)OCO2 (stereo not drawn)

>  <pEC50>
5.25

$$$$
>  <Compound>
COc1ccc(C2CCCCN2S(=O)(=O)c2ccccc2)cc1Br (stereo not drawn)

>  <pEC50>
4.88

$$$$

pEC50 measured on Fc1ccc(C2CCCCN2Cc2cccc(Cl)n2)cc1Cl (stereo not drawn) = 6.24

pEC50 measured on [2H]C1(c2cccc(C(F)(F)F)c2)C(F)CCCN1c1nc(Cl)ncc1F (stereo not drawn) = 5.93

pEC50 measured on Fc1ccc(Cl)cc1CN1CCCCC1c1cccc(C(F)(F)F)n1 (stereo not drawn) = 6.81

====

molecular target: mu opioid receptor (MOR) (Homo sapiens, UniProt P35372); assay: PathHunter β-arrestin recruitment assay, PAM mode with EC20 endomorphin-1; type: cell-based; settings: β-arrestin recruitment; read-out: β-arr. EC50
Items are presented alongside their recorded EC50.

EC50 measured on COc1ccc(C2CC(F)(F)CN2c2nc(Cl)ncc2F)cc1Br (stereo not shown) = > 2100 nM

EC50 measured on O=C1CCN(c2nc(Cl)ncc2F)C(c2cccc(C(F)(F)F)c2)C1 (stereo not shown) = > 2100 nM

EC50 measured on Fc1cnc(Cl)nc1N1CCCCC1c1ccc(Br)c(C(F)(F)F)c1 (stereo not shown) = 700 to 2100 nM

EC50 measured on N#Cc1ccc(C2CCCCN2S(=O)(=O)c2ccc(Cl)cc2)cc1C(F)(F)F (racemic) = > 2100 nM

EC50 measured on FC(F)(F)c1cccc(C2CCCCN2Cc2ccc(Cl)cc2)n1 (stereo not shown) = > 2100 nM

====

molecular target: mu opioid receptor (MOR) (Homo sapiens); experiment: Hit Hunter cAMP signaling assay (adenylyl cyclase inhibition), PAM mode with EC20 endomorphin-1; format: cell-based; conditions: cAMP; EC20 EM-1 agonism of MOR
Parameter threshold = 80. Response is Yes when Max. Response meets or exceeds it, else No.

Query: hey, is Max. Response for this one >= 80? Fc1cnc(Cl)nc1N1CCCCC1c1cccc(C(F)(F)F)c1 (single isomer, unassigned) [compound 9]
Result: No

====

molecular target: UniProt P35372; assay: Hit Hunter cAMP signaling assay (adenylyl cyclase inhibition), PAM mode with EC20 endomorphin-1; format: cell-based; conditions: cAMP EC50, adenylyl cyclase inhibition
Observed Property: EC50

Consider the reported EC50 for these compounds:
>  <Compound>
Fc1cnc(Cl)nc1N1CCCCC1c1ccc(Cl)c(C(F)(F)F)c1 (centres unmarked) [compound 128]

>  <Measured On>
UniProt P35372

>  <EC50>
0.7 to 2.1 µM

$$$$
>  <Compound>
Fc1ccc(C2CCCCN2c2ccc(C(F)(F)F)cc2)cc1Cl (centres unmarked)

>  <Measured On>
UniProt P35372

>  <EC50>
> 2.1 µM

$$$$
>  <Compound>
Fc1ccc(C2CCCCN2Cc2cc(Cl)ccc2F)cc1 (centres unmarked)

>  <Measured On>
UniProt P35372

>  <EC50>
< 0.7 µM

$$$$
>  <Compound>
COc1ccc(C2CCCCN2c2cc(F)cc(Cl)n2)cc1Br (centres unmarked)

>  <Measured On>
UniProt P35372

>  <EC50>
> 2.1 µM

$$$$

EC50 measured on Fc1cccc(CN2CCCCC2c2cccc(C(F)(F)F)n2)c1 (centres unmarked) = 0.7 to 2.1 µM

====

Items are presented alongside their recorded EC50.
biological target: mu opioid receptor (MOR) (Homo sapiens); test: Hit Hunter cAMP signaling assay (adenylyl cyclase inhibition), PAM mode with EC20 endomorphin-1; type: cell-based; conditions: cAMP EC50, adenylyl cyclase inhibition

EC50 measured on OC1CN(c2ncc(F)c(N3CCCCC3c3cccc(C(F)(F)F)c3)n2)C1 (centres unmarked) = > 2100 nM

EC50 measured on Oc1ncnc(N2CCCCC2c2cccc(C(F)(F)F)c2)c1F (centres unmarked) = < 700 nM

EC50 measured on Fc1cc(C2CCCCN2c2nc(Cl)ncc2F)cc(C(F)(F)F)c1 (single isomer, unassigned) [compound 423] = < 700 nM

EC50 measured on Fc1cnc(Cl)nc1N1CCCCC1c1ccc(Cl)c(Br)c1 (single isomer, unassigned) = < 700 nM

EC50 measured on Fc1cnc(Cl)nc1N1CCCCC1c1ccc(Cl)c(C(F)(F)F)c1 (single isomer, unassigned) [compound 345] = < 700 nM

EC50 measured on CNc1cccc(C2CCCCN2Cc2cc(Cl)ccc2F)n1 (centres unmarked) = > 2100 nM

EC50 measured on FC(F)(F)c1cccc(C2CCCCN2c2ccnc(Cl)n2)c1 (centres unmarked) = > 2100 nM

EC50 measured on FC(F)(F)c1cccc(C2CCCCN2c2nccc(Cl)n2)c1 (centres unmarked) = > 2100 nM

EC50 measured on COc1ccc(C2CCCCN2c2ccc(C(F)(F)F)cn2)cc1Br (centres unmarked) = > 2100 nM

EC50 measured on COc1ccc(C2CCCCN2c2ccnc(Cl)n2)cc1Br (centres unmarked) = > 2100 nM

EC50 measured on Cc1nccc(N2CCCCC2c2cncc(Cl)n2)n1 (centres unmarked) = < 700 nM

EC50 measured on Fc1cnc(Cl)nc1N1CCCCC1c1cc(C(F)(F)F)c2[nH]ncc2c1 (centres unmarked) = < 700 nM

EC50 measured on Cc1cnc(N2CCCCC2c2cccc(C(F)(F)F)c2)nc1Cl (centres unmarked) = > 2100 nM

EC50 measured on COc1ncc(F)c(N2CCCCC2c2ccc(OC)c(Br)c2)n1 (centres unmarked) = > 2100 nM

EC50 measured on Fc1ccc(Cl)cc1CN1C2CCC(C2)C1c1cccc(C(F)(F)F)n1 (centres unmarked) = > 2100 nM

====

Items are presented alongside their recorded pEC50.
molecular target: mu opioid receptor (MOR) (Homo sapiens); test: Hit Hunter cAMP signaling assay (adenylyl cyclase inhibition), PAM mode with EC20 endomorphin-1; type: cell-based; conditions: cAMP EC50, adenylyl cyclase inhibition
pEC50: −log10 of the molar value.

Consider the reported pEC50 for these compounds:
>  <Compound>
CN(C)c1ncc(F)c(N2CCCCC2c2cccc(F)n2)n1 (stereo not drawn)

>  <Recorded Measurement>
< 5.68

$$$$
>  <Compound>
COc1ccc(C2CCCCN2S(=O)(=O)c2ccc(Cl)cc2)cc1Br (single isomer, unassigned) [compound 5]

>  <Recorded Measurement>
< 5.68

$$$$
>  <Compound>
[2H]C1(c2ccc(F)c(Br)c2)C(F)CCCN1Cc1cccc(Cl)c1 (stereo not drawn)

>  <Recorded Measurement>
> 6.15

$$$$

pEC50 measured on Fc1c(Cl)ncnc1N1CCCCC1c1cccc(C(F)(F)F)c1 (stereo not drawn) = > 6.15

pEC50 measured on Fc1cncc(C2CCCCN2c2nc(Cl)ncc2F)c1 (stereo not drawn) = > 6.15

pEC50 measured on O=C1CCN(c2nc(Cl)ncc2F)C(c2ccc(F)c(Br)c2)C1 (stereo not drawn) = < 5.68

pEC50 measured on Fc1cc(C2C3CCC(C3)N2c2nc(Cl)ncc2F)cc(C(F)(F)F)c1 (stereo not drawn) = < 5.68

pEC50 measured on O=c1[nH]c2ccc(C3CCCCN3c3nc(Cl)ncc3F)cc2o1 (stereo not drawn) = < 5.68

pEC50 measured on Fc1ccc(C2CCCCN2Cc2cncc(Cl)c2)cc1Cl (stereo not drawn) = < 5.68
